System: acetaminophen sulfate formation (sulfation)
assay procedure: Inhibition of acetaminophen sulfate formation in pooled human hepatic S9
Format: in vitro ADME
particulars: both, pooled human hepatic S9, probe acetaminophen (2 mM)
endpoint: IC50 at 15 min

input: Please give the measured IC50 at 15 min for this molecule: NC(=O)c1nc(F)c[nH]c1=O [Favipiravir, reference compound]
output: 150 µM

====

Here, each record is paired with measured half-life data.
Assay type: in vivo, human
particulars: both, human, plasma, oral, 650 mg, t½, Day 1, acetaminophen alone (control); mean (± SE), n = 28
Express your answer in h, writing the number without its unit.

molecule: CC(=O)Nc1ccc(O)cc1 [Acetaminophen, reference compound]
half-life / h: 2.8

input: GET /values?readout=half-life&item= CC(=O)Nc1ccc(O[C@@H]2O[C@H](C(=O)O)[C@@H](O)[C@H](O)[C@H]2O)cc1 [Acetaminophen glucuronide]
output: 3.3
